# System Name: CtBP2-p300^BRD interaction (Mus musculus, UniProt B2RWS6+P56546)
# Construct: R1 (1-1000 amino acids, aa), R2 (1001–1201 aa), R3 (1202–1810 aa)
# Sequence (B2RWS6 1001-1201 limits assumed): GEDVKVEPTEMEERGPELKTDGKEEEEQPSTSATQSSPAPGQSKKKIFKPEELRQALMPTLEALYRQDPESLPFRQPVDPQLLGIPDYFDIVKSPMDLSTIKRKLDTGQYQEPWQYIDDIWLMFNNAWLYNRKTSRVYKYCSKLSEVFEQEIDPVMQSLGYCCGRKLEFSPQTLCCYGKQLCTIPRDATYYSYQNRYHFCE
# Sequence (P56546 whole entry, the tested form may be a part): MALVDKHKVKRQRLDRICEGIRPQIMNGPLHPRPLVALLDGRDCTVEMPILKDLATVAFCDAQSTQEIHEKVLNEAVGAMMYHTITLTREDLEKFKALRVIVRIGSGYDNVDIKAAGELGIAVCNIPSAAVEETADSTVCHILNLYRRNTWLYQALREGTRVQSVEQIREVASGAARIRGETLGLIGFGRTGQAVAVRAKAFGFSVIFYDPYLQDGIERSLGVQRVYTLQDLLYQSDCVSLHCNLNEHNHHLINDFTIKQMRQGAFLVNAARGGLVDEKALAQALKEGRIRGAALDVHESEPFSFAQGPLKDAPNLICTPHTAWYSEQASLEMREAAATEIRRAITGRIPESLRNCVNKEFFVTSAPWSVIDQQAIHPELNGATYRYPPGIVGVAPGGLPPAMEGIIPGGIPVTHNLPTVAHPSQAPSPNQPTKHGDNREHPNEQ
# Protocol Description: AlphaScreen of GST-p300^BRD and His-CtBP2 interaction
# Condition Summary: read-out: IC50 disrupting CtBP2-p300^BRD interaction
Readout: IC50 (µM)
Numbers only, in µM.

Item CC(=CCCC1=CCC(C2COC(=O)C2)OC1O)CCC1=C(C)CCCC1(C)C (stereo not shown) [PNSC928] ; assay system CtBP2-p300^BRD interaction (Mus musculus, UniProt B2RWS6+P56546); IC50 reported as 23.6
